Assay: collision cross section in nitrogen (drift tube, single-field); higher = larger gas-phase ion size;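 also: chemical standards at 10 µM analysed by drift tube IMS-QTOF MS in about 3.95 torr nitrogen, mean of duplicate injections differing ≤1%, mass error below 10 ppm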
Details: ion type: [M+Na]; ion source: ESI; ion mode: Positive
Measured collision cross section in nitrogen values are reported for all entries that follow.
Dear colleague, please return just the value in Å², with no unit written.

# annotated cases, reported collision cross section in nitrogen shown
>>> df
                                   compound  reported_result
0  CCCCc1nc2cccnc2n1Cc1ccc(-c2ccccc2-c2nnn[nH]2)cc1            205.8
1  CN(c1nccc(=O)[nH]1)C1CCN(c2nc3ccccc3n2Cc2ccc(F)cc2)CC1            209.6
2  C#C[C@]1(O)CC[C@H]2[C@@H]3CCC4=CC(=O)CC[C@]4(C)[C@H]3CC[C@@]21C            204.6
3  CC(C)=C[C@@H]1[C@@H](C(=O)OCc2coc(Cc3ccccc3)c2)C1(C)C            188.3
4            Cn1c([N+](=O)[O-])cnc1COC(N)=O            143.1
5  CCOC(=O)NC(=S)Nc1ccccc1NC(=S)NC(=O)OCC [Thiophanate]            189.6

Enquiry: Item `CCNc1nc(NC(C)C)nc(OC)n1` : provide collision cross section in nitrogen
Return: 168.1

Enquiry: Query collision cross section in nitrogen for `C[C@]12C[C@H](O)[C@H]3[C@@H](CCC4=CC(=O)CC[C@@]43C)[C@@H]1CC[C@@H]2C(=O)CO`
Return: 212.4

Enquiry: Return collision cross section in nitrogen for the following compound: `CNCc1ccc(NC(=O)c2c[nH]c3c2C(=O)CCC3)cc1`
Return: 182.6

Enquiry: Identify collision cross section in nitrogen associated with the compound `CNC(=O)Oc1cccc2c1OC(C)(C)O2`
Return: 157

Enquiry: Give me measured collision cross section in nitrogen, please, for this compound: Cc1cc(C)c(C(=O)P(=O)(c2ccccc2)c2ccccc2)c(C)c1 [Diphenyl(2,4,6-trimethylbenzoyl)phosphine oxide]
Return: 191.1

Enquiry: Please indicate collision cross section in nitrogen recorded for `CCOP(=S)(OCC)Oc1cc(C)nc(N(CC)CC)n1`
Return: 181.5

====

Test: collision cross section in nitrogen (drift tube, single-field); higher = larger gas-phase ion size
Settings: ion type: [M-H]; ion source: ESI; ion mode: Negative
collision cross section in nitrogen vs 200 Å²: at or above is MET, below is NOT MET.

// known answers, use as guide
compound	class label
O=Cc1ccccc1S(=O)(=O)O [Sodium 2-formylbenzenesulfonate]	NOT MET
OC[C@H]1O[C@@H]2O[C@H]3[C@H](O)[C@@H](O)[C@@H](O[C@H]4[C@H](O)[C@@H](O)[C@@H](O[C@H]5[C@H](O)[C@@H](O)[C@@H](O[C@H]6[C@H](O)[C@@H](O)[C@@H](O[C@H]7[C@H](O)[C@@H](O)[C@@H](O[C@H]8[C@H](O)[C@@H](O)[C@@H](O[C@H]9[C@H](O)[C@@H](O)[C@@H](O[C@H]1[C@H](O)[C@H]2O)O[C@@H]9CO)O[C@@H]8CO)O[C@@H]7CO)O[C@@H]6CO)O[C@@H]5CO)O[C@@H]4CO)O[C@@H]3CO	MET
Cc1ccc2nc(-c3ccc(N)cc3)sc2c1 [Dehydrothio-4-toluidine]	NOT MET

Enquiry: Threshold query (collision cross section in nitrogen >= 200 Å²) on `Oc1cc(Cl)ccc1Cl`
Return: NOT MET

Enquiry: Reported collision cross section in nitrogen at or above 200 Å²? `Cc1ccc2c(c1)C(=O)c1ccccc1C2=O`
Return: NOT MET

Enquiry: Exam item: decide whether the reported collision cross section in nitrogen for C[C@]12CC[C@@H]3c4ccc(O)cc4CC[C@H]3[C@@H]1CC[C@@H]2OC(=O)CCC1CCCC1 [Estradiol cypionate] is at least 200 Å².
Return: MET

Enquiry: Can `O=C(N[C@H]1CN2CCC1CC2)c1ccc2c(c1)OCCO2` be said to have collision cross section in nitrogen at or above 200 Å²?
Return: NOT MET

Enquiry: Item `O=C(O)c1cccc(Oc2ccccc2)c1` with collision cross section in nitrogen of 200 Å² or above?
Return: NOT MET

Enquiry: Check if collision cross section in nitrogen >= 200 Å² (inclusive). Item: CC(C)C1=CC2=CC[C@@H]3[C@](C)(CCC[C@@]3(C)C(=O)O)[C@H]2CC1 [Sodium abietate]
Return: NOT MET

Enquiry: API: above_or_equal(metric=collision cross section in nitrogen, cutoff=200 Å²) for item CCC(C)c1cc(C(C)(C)C)cc(-n2nc3ccccc3n2)c1O (stereo not given)
Return: NOT MET

Enquiry: Does the reported collision cross section in nitrogen for `OC[C@H]1O[C@H](O[C@]2(CCl)O[C@H](CCl)[C@@H](O)[C@@H]2O)[C@H](O)[C@@H](O)[C@H]1Cl` fall at or above the 200 Å² mark?
Return: NOT MET

Enquiry: For this compound, is measured collision cross section in nitrogen 200 Å² or higher? `O=C1OC2(c3cc(Br)c(O)c(Br)c3Oc3c2cc(Br)c(O)c3Br)c2c(Cl)c(Cl)c(Cl)c(Cl)c21`
Return: MET

Enquiry: Decide: collision cross section in nitrogen of `CCCCCCCCCCCCCC(=O)O` >= 200 Å²?
Return: NOT MET

Enquiry: Does the compound CC1(C)O[C@@H]2[C@@H](CO[C@@]3(COS(N)(=O)=O)OC(C)(C)O[C@@H]23)O1 [Topiramate] have recorded collision cross section in nitrogen that is 200 Å² or more?
Return: NOT MET

Enquiry: # check: collision cross section in nitrogen of `COC(=O)NS(=O)(=O)c1ccc(N)cc1` is greater than or equal to 200 Å²
Return: NOT MET
